- TARGET OF ASSAY: human integrin αvβ3 (Homo sapiens, UniProt P05106+P06756)
- ASSAY COMMENT: cell adhesion assay, HeK293-αvβ3 cells to vitronectin
VALUE TYPE: pIC50
By convention, pIC50 is the negative base-10 log of a molar concentration.

Challenge: # return recorded pIC50 for entry COc1ccc([C@H](CC(=O)O)N2CCN(CCCc3ccc4c(n3)NCCC4)C2=O)cn1
Response given: 9.24

---

- TARGET OF ASSAY: purified human αvβ3 integrin (Homo sapiens, UniProt P05106+P06756)
- ASSAY COMMENT: 3H-MK-0429 binding assay with purified receptor
VALUE TYPE: pKd
By convention, pKd is the negative base-10 log of a molar concentration.

Challenge: # return recorded pKd for entry COc1ccc([C@H](CC(=O)O)N2CCN(CCCc3ccc4c(n3)NCCC4)C2=O)cn1
Response given: 9.48

---

- TARGET OF ASSAY: purified rat αvβ3 integrin (Rattus norvegicus, UniProt F1LZX9+Q8R2H2)
- Sequence (F1LZX9 31-1043): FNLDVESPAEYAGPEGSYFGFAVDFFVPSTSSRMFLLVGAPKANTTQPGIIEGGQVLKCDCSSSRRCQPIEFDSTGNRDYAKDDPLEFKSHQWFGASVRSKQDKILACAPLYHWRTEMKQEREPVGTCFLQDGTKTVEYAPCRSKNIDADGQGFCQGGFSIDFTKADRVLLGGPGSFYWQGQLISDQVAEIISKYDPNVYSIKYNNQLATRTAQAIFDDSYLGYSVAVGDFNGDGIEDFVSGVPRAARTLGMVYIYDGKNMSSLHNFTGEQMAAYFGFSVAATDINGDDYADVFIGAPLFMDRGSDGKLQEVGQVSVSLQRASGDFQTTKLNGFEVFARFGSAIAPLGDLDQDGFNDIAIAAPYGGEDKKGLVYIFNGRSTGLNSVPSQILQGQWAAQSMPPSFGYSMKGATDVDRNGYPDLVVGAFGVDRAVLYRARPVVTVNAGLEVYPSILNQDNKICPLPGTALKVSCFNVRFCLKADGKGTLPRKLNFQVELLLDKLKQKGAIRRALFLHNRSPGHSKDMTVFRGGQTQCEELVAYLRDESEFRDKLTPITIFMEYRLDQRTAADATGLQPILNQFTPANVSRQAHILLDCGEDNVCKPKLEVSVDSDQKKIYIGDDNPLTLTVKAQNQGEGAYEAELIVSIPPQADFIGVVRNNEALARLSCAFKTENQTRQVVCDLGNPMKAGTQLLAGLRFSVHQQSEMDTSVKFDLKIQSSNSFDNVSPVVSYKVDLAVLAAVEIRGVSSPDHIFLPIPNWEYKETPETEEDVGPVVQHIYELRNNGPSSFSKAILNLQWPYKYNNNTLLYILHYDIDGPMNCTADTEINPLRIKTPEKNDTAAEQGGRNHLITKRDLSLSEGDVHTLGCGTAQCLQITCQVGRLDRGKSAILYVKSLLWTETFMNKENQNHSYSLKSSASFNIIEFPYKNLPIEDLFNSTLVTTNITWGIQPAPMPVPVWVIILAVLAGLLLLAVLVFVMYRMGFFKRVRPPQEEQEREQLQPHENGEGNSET
- Sequence (Q8R2H2 26-787): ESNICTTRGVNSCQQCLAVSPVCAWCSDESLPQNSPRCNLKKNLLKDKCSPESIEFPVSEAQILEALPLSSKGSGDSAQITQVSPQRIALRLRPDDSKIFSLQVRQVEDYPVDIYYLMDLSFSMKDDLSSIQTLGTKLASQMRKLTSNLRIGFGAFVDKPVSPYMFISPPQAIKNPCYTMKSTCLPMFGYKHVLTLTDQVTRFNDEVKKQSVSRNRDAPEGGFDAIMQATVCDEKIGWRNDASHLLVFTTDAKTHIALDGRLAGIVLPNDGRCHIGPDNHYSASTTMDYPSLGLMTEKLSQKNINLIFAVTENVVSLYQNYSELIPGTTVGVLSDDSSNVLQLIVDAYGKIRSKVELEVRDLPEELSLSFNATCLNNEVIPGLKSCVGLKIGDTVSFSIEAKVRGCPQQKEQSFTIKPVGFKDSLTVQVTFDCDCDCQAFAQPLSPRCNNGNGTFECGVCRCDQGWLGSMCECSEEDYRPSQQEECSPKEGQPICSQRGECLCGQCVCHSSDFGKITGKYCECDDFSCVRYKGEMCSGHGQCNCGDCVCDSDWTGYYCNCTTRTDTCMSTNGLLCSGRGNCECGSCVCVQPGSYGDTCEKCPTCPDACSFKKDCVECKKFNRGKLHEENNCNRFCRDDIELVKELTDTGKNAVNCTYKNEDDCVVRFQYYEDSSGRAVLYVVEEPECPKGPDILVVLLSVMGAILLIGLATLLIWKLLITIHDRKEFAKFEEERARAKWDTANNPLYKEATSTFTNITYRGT
- ASSAY COMMENT: 3H-MK-0429 binding assay with purified receptor
VALUE TYPE: Kd (nM)
Lab book: enter the figure in nM, no units written.

Challenge: # return recorded Kd for entry COc1ccc([C@H](CC(=O)O)N2CCN(CCCc3ccc4c(n3)NCCC4)C2=O)cn1
Response given: 1.23

---

- TARGET OF ASSAY: purified murine αvβ3 integrin (Mus musculus, UniProt O54890+P43406)
- Sequence (P43406 31-885): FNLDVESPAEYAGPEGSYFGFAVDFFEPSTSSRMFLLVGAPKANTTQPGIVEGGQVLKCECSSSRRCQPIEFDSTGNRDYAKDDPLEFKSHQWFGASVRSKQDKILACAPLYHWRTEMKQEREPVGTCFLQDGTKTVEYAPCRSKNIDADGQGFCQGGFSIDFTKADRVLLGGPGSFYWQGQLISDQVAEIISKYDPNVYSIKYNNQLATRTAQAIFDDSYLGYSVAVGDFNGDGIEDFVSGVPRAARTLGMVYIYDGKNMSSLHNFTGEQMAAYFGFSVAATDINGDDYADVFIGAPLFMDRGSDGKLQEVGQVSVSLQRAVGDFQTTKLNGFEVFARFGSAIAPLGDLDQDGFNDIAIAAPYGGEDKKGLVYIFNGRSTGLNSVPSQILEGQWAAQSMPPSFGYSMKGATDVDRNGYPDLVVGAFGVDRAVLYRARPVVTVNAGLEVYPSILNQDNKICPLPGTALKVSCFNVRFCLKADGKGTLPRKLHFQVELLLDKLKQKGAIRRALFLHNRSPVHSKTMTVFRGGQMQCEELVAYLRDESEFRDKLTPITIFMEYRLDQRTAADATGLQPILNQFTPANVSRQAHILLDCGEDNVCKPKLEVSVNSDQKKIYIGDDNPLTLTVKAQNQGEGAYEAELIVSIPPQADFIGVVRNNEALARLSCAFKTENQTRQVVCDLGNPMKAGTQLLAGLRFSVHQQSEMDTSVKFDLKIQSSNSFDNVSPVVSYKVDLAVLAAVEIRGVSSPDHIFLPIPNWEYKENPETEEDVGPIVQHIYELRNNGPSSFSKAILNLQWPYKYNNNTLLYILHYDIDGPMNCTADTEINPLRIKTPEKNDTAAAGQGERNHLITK
- Sequence (P43406 887-1044): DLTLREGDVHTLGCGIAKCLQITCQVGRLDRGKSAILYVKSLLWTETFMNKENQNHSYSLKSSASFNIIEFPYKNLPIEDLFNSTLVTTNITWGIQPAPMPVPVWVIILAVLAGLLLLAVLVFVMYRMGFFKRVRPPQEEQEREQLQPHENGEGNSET
- Sequence (O54890 26-787): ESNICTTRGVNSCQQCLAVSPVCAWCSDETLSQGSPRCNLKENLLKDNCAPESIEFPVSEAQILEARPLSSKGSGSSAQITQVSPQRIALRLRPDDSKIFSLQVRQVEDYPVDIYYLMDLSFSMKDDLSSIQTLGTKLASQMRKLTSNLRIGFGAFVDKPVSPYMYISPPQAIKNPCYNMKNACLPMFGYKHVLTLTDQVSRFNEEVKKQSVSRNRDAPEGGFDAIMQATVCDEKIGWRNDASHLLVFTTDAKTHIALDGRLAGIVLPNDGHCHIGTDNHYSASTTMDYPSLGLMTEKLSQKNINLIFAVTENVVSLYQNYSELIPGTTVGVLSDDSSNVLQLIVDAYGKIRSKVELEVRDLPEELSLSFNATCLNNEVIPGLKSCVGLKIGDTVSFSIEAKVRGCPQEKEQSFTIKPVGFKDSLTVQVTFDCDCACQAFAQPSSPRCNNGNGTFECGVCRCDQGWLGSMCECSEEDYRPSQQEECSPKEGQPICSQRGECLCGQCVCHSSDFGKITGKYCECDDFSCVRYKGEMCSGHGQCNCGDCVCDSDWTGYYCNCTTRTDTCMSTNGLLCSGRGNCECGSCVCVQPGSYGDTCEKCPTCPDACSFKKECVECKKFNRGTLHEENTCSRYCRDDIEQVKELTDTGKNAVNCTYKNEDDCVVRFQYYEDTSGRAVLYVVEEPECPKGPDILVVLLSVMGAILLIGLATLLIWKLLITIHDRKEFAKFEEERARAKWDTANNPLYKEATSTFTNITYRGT
- ASSAY COMMENT: 3H-MK-0429 binding assay with purified receptor
VALUE TYPE: pKd
By convention, pKd is the negative base-10 log of a molar concentration.

Challenge: # return recorded pKd for entry COc1ccc([C@H](CC(=O)O)N2CCN(CCCc3ccc4c(n3)NCCC4)C2=O)cn1
Response given: 9.25
